Where do these numbers come from? They come from patent US9993002B2.

# Test system: Arabidopsis thaliana (wild-type Col-0)
# experimentDescription: Root growth and lateral root formation of Arabidopsis
# Format: in vivo
# condition: 10 nM, two weeks after transfer
Measured Lateral root number, listed per entry for reference.
measuredMetric: Lateral root number

> print(dat)
                                   compound                                     tgt  assayvalue
1                        O=C(NCCCO)Nc1cnns1  Arabidopsis thaliana (wild-type Col-0)     12 (±6)
2  c1ccc(CNc2ncnc3nc[nH]c23)cc1 [6-benzylaminopurine (BAP), 6-benzylaminopurine, reference compound]  Arabidopsis thaliana (wild-type Col-0)    3.6 (±2)
3                        C#CCNC(=O)Nc1cnns1  Arabidopsis thaliana (wild-type Col-0)     15 (±8)

* * *

# Test system: Arabidopsis thaliana (wild-type Col-0)
# experimentDescription: Root growth and lateral root formation of Arabidopsis
# Assay type: in vivo
# condition: 10 nM, two weeks after transfer
# Description: To investigate in vivo effect of the new derivatives on the root growth and development, seeds of Arabidopsis thaliana (wild-type Col-0) were surface sterilized and sown on vertical plates on half-strength Murashige-Skoog medium (supplied with 0.1% sucrose and 6 g/L phytagel) containing 10 nM BAP or 10 nM 1,2,3-thiadiazol-5-yl-urea derivative, or 0.01% DMSO (solvent control). […] At least 40 plants were measured for each treatment.
measuredMetric: Lateral root number

> print(dat)
                                    compound       measuredmetric  assayvalue
 1  C=CCNC(=O)Nc1cnns1 [Compound 50, 1-Allyl-3-[1,2,3]thiadiazol-5-yl-urea]  Lateral root number    14 (±10)
 2           COCCNC(=O)Nc1cnns1 [Compound 6]  Lateral root number     17 (±9)
 3  CC(O)CNC(=O)Nc1cnns1 (centres unmarked) [Compound 25]  Lateral root number     12 (±8)
 4  O=C(NCC1CCCO1)Nc1cnns1 (centres unmarked) [Compound 75]  Lateral root number     17 (±6)
 5          O=C(NCCCl)Nc1cnns1 [Compound 65]  Lateral root number     12 (±8)
 6      COC(CNC(=O)Nc1cnns1)OC [Compound 16]  Lateral root number     19 (±9)
 7   C/C(=C\CNC(=O)Nc1cnns1)CO [Compound 20]  Lateral root number     11 (±6)
 8  O=C(Nc1ccccc1)Nc1cnns1 [TDZ, thidiazuron, reference compound]  Lateral root number    2.1 (±2)
 9  COCC(C)NC(=O)Nc1cnns1 (centres unmarked) [Compound 28]  Lateral root number     16 (±7)
10  O=C(NCc1ccco1)Nc1cnns1 [Compound 84, N-furfuryl-N′-1,2,3-thiadiazol-5-yl-urea]  Lateral root number     13 (±6)
11          COCCCNC(=O)Nc1cnns1 [Compound 7]  Lateral root number    14 (±10)

* * *

# Test system: Arabidopsis thaliana (wild-type Col-0)
# experimentDescription: Root growth and lateral root formation of Arabidopsis
# Format: in vivo
# condition: 10 nM, two weeks after transfer
measuredMetric: Primary root lenght

> print(dat)
                                   compound       measuredmetric   assayvalue
1  c1ccc(CNc2ncnc3nc[nH]c23)cc1 [6-benzylaminopurine (BAP), 6-benzylaminopurine, reference compound]  Primary root lenght   15 (±5) mm
2  COCC(C)NC(=O)Nc1cnns1 (stereo not drawn) [Compound 28]  Primary root lenght  41 (±13) mm
3      COC(CNC(=O)Nc1cnns1)OC [Compound 16]  Primary root lenght   45 (±9) mm
